Multi-source literature compilation: IC50 on Tyrosine-protein kinase JAK1 (Homo sapiens, UniProt P23458).

Some entries whose results are on file:
>  <Compound>
Cn1cc(-c2cc3nccn3c(-c3ccn(C4(CC#N)CN(CC(F)(F)F)C4)c3)n2)cn1

>  <Target Of Assay>
Tyrosine-protein kinase JAK1 (Homo sapiens, UniProt P23458)

>  <IC50>
100 to 1000 nM

$$$$
>  <Compound>
CCS(=O)(=O)N1CC(CC#N)(n2cc(-c3nc(Nc4ccn(C)n4)nc4ccsc34)cn2)C1

>  <Target Of Assay>
Tyrosine-protein kinase JAK1 (Homo sapiens, UniProt P23458)

>  <IC50>
< 50 nM

$$$$
>  <Compound>
CCCS(=O)(=O)N[C@H]1C[C@@H](Nc2c(-c3ncco3)cnc3[nH]ccc23)C1

>  <Target Of Assay>
Tyrosine-protein kinase JAK1 (Homo sapiens, UniProt P23458)

>  <IC50>
≤ 10 nM

$$$$

Form: Entry = "C[C@H](c1ccc(F)cn1)n1c(=O)[nH]c2cnc(-c3cnn4ccncc34)nc21" | System = Tyrosine-protein kinase JAK1 (Homo sapiens, UniProt P23458) | IC50 = ____
< 100 nM

Request body: readout IC50, system Tyrosine-protein kinase JAK1 (Homo sapiens, UniProt P23458), query "CN(c1ncnc2[nH]ccc12)[C@H]1C[C@@H]2CN(S(=O)(=O)C3CC3)C[C@@H]2C1" . Return the value.
80 nM

Request: IC50, test system Tyrosine-protein kinase JAK1 (Homo sapiens, UniProt P23458), entry "O=C(NCCS(=O)(=O)N1CCCC1)c1noc2c1CN(c1ncnc3[nH]ccc13)CC2"
100 to 500 nM

Param readout = IC50; param system = Tyrosine-protein kinase JAK1 (Homo sapiens, UniProt P23458); param query = CC1(C)CCOCc2cc(ccc2OC2CCCOC2)Nc2nccc(n2)-c2ccc(cc2N)C(=O)NC1 (stereo not shown) ; response: value
1000 to 10000 nM

Param readout = IC50; param system = Tyrosine-protein kinase JAK1 (Homo sapiens, UniProt P23458); param query = "CS(=O)(=O)CCCn1cc(Nc2nc(-c3cnn(C4(CC#N)CCC4)c3)c3sccc3n2)cn1" ; response: value
50 to 500 nM

Observed IC50 on Tyrosine-protein kinase JAK1 (Homo sapiens, UniProt P23458) for CC1=CB(O)Oc2ccc(Nc3nn(C4COCCC4C#N)cc3C(N)=O)cc21 (stereo not shown) , please.
< 10 nM

Look up IC50 with Tyrosine-protein kinase JAK1 (Homo sapiens, UniProt P23458) for this compound: NC(=O)c1cnc(Nc2ccc3c(c2)NCC(O)CO3)nc1NC1CCCC1 (stereo not shown)
< 10 nM
